Test system: Cells stably expressing Amyloid Precursor Protein (APP)
protocol: In vitro BACE cell-based assay (HEK cell assay): Aβ40 in conditioned medium by sandwich ELISA
condition-details: Homo sapiens, HEK293, 24 h, Aβ40 in conditioned medium after 24 h incubation
attribute-measured: log10(IC50) (log10 of the value in nM)

| compound | log10(IC50) |
| --- | --- |
| C=CC[C@H](NC(=O)[C@H](OC)C(C)C)[C@H](O)CN[C@H]1CC2(CCC2)Oc2ncc(CC(C)(C)C)cc21 [Example 150] | 3.72 |
| C=CC[C@H](NC(=O)COC)[C@H](O)CN[C@H]1CC2(CCC2)Oc2ncc(CC(C)(F)F)cc21 [Example 121] | 2.35 |
| C=CC[C@H](NC(=O)c1cc(F)cc(F)c1)[C@H](O)CN[C@H]1CC2(CCC2)Oc2ncc(CC(C)(C)C)cc21 [Example 61] | 1.46 |
| C#CC[C@H](NC(C)=O)[C@H](O)CN[C@H]1CC2(CCC2)Oc2ncc(CC(C)(C)C)cc21 [Example 84] | 2.35 |
| C=CC[C@H](NC(=O)c1ccc(F)cn1)[C@H](O)CN[C@H]1CC2(CCC2)Oc2ncc(CC(C)(C)C)cc21 [Example 62] | 3.70 |
| C=CC[C@H](NC(=O)c1ccn(C)n1)[C@H](O)CN[C@H]1CC2(CCC2)Oc2ncc(CC(C)(C)C)cc21 [Example 132] | 2.62 |

----------
tested-target: BACE1 (Homo sapiens)
Sequence (P56817 46-501, species assumed): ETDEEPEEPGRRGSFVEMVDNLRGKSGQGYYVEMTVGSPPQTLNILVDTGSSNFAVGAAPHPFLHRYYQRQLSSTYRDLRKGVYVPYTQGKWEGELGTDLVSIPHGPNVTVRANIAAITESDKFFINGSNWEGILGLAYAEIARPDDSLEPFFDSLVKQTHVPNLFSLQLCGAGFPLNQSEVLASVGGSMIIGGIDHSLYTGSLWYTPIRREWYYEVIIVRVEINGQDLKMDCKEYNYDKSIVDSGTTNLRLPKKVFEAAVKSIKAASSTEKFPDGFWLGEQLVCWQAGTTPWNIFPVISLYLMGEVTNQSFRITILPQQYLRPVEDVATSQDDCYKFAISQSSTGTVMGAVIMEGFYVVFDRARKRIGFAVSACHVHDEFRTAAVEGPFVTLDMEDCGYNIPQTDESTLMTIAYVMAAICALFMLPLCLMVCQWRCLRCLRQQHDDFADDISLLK
protocol: In vitro enzymatic BACE FRET (fluorescence resonance energy transfer) assay
Format: biochemical
hey, just use MET if measured IC50 is less than 400 nM, otherwise NOT MET

| compound | assigned-class |
| --- | --- |
| C=CC[C@H](NC(C)=O)[C@H](O)CN[C@H]1C[C@@]2(CC[C@H]2O)Oc2ncc(CC(C)(C)C)cc21 | NOT MET |
| C=CC[C@H](NC(C)=O)[C@H](O)CN[C@H]1CC2(CCC2)Oc2ncc(CC(C)(F)F)cc21 | MET |
| C=CC[C@H](NC(=O)c1cc(F)c(F)c(F)c1)[C@H](O)CN[C@H]1CC2(CCC2)Oc2ncc(CC(C)(C)C)cc21 | NOT MET |
| C=CCC(NC(=O)COC)C(O)CNC1CC2(CC(O)C2)Oc2ncc(CC(C)(C)C)cc21 (stereo not drawn) | MET |
| C#CC[C@H](NC(=O)c1cc(F)cc(F)c1)[C@H](O)CN[C@H]1CC2(CCC2)Oc2ncc(CC(C)(C)C)cc21 | MET |
| C=CC[C@H](NC(=O)c1cccc(F)c1)[C@H](O)CN[C@H]1CC2(CCC2)Oc2ncc(CC(C)(C)C)cc21 | MET |

----------
Test system: Cells stably expressing Amyloid Precursor Protein (APP)
protocol: In vitro BACE cell-based assay (HEK cell assay): Aβ40 in conditioned medium by sandwich ELISA
condition-details: Homo sapiens, HEK293, 24 h, Aβ40 in conditioned medium after 24 h incubation
Procedure: In Vitro BACE Cell-Based Assay: The cell-based assay measures inhibition or reduction of Aβ40 in conditioned medium of test compound treated cells expressing amyloid precursor protein. Cells stably expressing Amyloid Precursor Protein (APP) were plated at a density of 40K cells/well in 96 well plates (Costar). […] After 24 h of incubation with the test compounds the supernatant conditioned media was collected and the Aβ 40 levels were determined using a sandwich ELISA. […]
attribute-measured: IC50 (nM)

| molecule | endpoint-value |
| --- | --- |
| C=CC[C@H](NC(=O)[C@H]1CC1(F)F)[C@H](O)CN[C@H]1CC2(CCC2)Oc2ncc(CC(C)(C)C)cc21 | 277 |
| CC#CCC(NC(=O)C1CCC(=O)O1)C(O)CNC1CC2(CCC2)Oc2ncc(CC(C)(C)C)cc21 (stereo not shown) | 72 |
| C=CC[C@H](NC(=O)C(C)(F)F)[C@H](O)CN[C@H]1CC2(CCC2)Oc2ncc(CC(C)(C)C)cc21 | 342 |
| C=CC[C@H](NC(=O)c1ccc2c(c1)OC(F)(F)O2)[C@H](O)CN[C@H]1CC2(CCC2)Oc2ncc(CC(C)(C)C)cc21 | 2360 |
| C=CC[C@H](NC(=O)c1cncn1C)[C@H](O)CN[C@H]1CC2(CCC2)Oc2ncc(CC(C)(C)C)cc21 | 65 |
| C=CC[C@H](NC(=O)c1cccc(F)c1F)[C@H](O)CN[C@H]1CC2(CCC2)Oc2ncc(CC(C)(C)C)cc21 | 121 |
| C=CC[C@H](NC(=O)c1cncc(F)c1)[C@H](O)CN[C@H]1CC2(CCC2)Oc2ncc(CC(C)(C)C)cc21 | 392 |

Data origin: patent US8633315B2
